Exercise: state measured IC50 for each of the compounds provided.
target: KRas-mediated phosphorylation of ERK in A549 cells (Homo sapiens, UniProt P01116, G12S); construct: pERK HTRF read-out; test: Inhibition of KRas-mediated phosphorylation of ERK (HTRF), A549 cells; format: cell-based; settings: HTRF pERK, 3 h incubation
Sequence (P01116 1-188 isoform P01116-2 G12S): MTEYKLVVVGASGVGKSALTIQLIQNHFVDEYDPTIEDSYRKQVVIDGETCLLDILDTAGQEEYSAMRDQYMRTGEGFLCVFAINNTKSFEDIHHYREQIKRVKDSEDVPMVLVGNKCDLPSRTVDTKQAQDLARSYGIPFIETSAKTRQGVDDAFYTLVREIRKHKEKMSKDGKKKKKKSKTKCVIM
Give bare numbers, in nM.

Example results:
>>> readout_number("CC(C)C(=O)N(C)C(=O)C1CCN(c2nc(OC[C@@]34CCCN3C[C@H](F)C4)nc3c(F)c(-c4ccc(F)c5sc(N)c(C#N)c45)c(Cl)cc23)CC1")
82
>>> readout_number("CCc1c(F)ccc2cc(O)cc(-c3ncc4c(N5CCC(C(=O)n6ccc(C)n6)CC5)nc(OC[C@@]56CCCN5C[C@H](F)C6)nc4c3F)c12")
109

Please find the next compound below.
## Task State its IC50: CCc1c(F)ccc2cc(O)cc(-c3ncc4c(NC[C@@H]5C[C@H]5C(=O)n5ccc(C)n5)nc(OC[C@@]56CCCN5C[C@H](F)C6)nc4c3F)c12 [Example 158]
## Result 126

###

Biological target: KRas G12C (Homo sapiens, UniProt P01116, G12C)
Construct: Biotinylated KRas (corresponding to amino acids 1-169, produced at Accelegan Inc.); biotin (biotinylated); purchased Accelegan Inc
Sequence (P01116 1-169 isoform P01116-2 G12C): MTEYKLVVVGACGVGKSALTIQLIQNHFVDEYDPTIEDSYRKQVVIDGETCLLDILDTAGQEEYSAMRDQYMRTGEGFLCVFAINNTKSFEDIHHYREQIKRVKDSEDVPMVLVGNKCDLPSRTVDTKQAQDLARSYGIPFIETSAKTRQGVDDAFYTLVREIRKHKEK
Assay: KRas binding assay, TR-FRET displacement of Cy5 labelled tracer
Settings: 60-minute incubation at room temperature, 1% DMSO, pH 7.5
Procedure: This Example illustrates that exemplary compounds of the present invention bind to KRas and are capable of displacing a labeled tracer ligand occupying the KRas binding site. […] The ability of a compound to bind to KRas was measured using a TR-FRET displacement assay. […] After a 60-minute incubation at room temperature, the reaction was measured using a BMG LABTECH CLARIO star Plus via TR-FRET. […]
Exercise: for every item that follows, state its recorded IC50.
Param answer (str): number followed by unit.

>>> result("CCc1c(F)ccc2cc(O)cc(-c3ncc4c(N5C[C@H]6C[C@@H](C(=O)n7ccc(C)n7)C[C@H]6C5)nc(OC[C@@]56CCCN5C[C@H](F)C6)nc4c3F)c12")
"93 nM"
>>> result("CN(C)Cc1ccn(C(=O)C2CCCN(c3nc(OC[C@@]45CCCN4C[C@H](F)C5)nc4c(F)c(-c5ccc(F)c6sc(N)c(C#N)c56)c(Cl)cc34)CC2)n1 (some centres unmarked)")
"2 nM"
>>> result("N#Cc1c(N)sc2c(F)ccc(-c3c(Cl)cc4c(N5CCC(C(=O)Oc6cccc(Cl)c6)CC5)nc(OC[C@@]56CCCN5C[C@H](F)C6)nc4c3F)c12")
"23 nM"

Give IC50 for each listed item.
1. CCc1c(F)ccc2cc(O)cc(-c3ncc4c(N5CC6CCC(C(=O)n7ccc(C)n7)C6C5)nc(OC[C@@]56CCCN5C[C@H](F)C6)nc4c3F)c12 (some centres unmarked)
2. CCc1c(F)ccc2cc(O)cc(-c3ncc4c(N5CCC(C(=O)n6cccn6)CC5)nc(OC[C@@]56CCCN5C[C@H](F)C6)nc4c3F)c12

## Result
1: 295 nM; 2: 22 nM

###

biological target: KRas G12S (Homo sapiens, UniProt P01116, G12S); construct: Biotinylated KRas (corresponding to amino acids 1-169, produced at Accelegan Inc.); biotin (biotinylated); purchased Accelegan Inc; assay: KRas binding assay, TR-FRET displacement of Cy5 labelled tracer; settings: 60-minute incubation at room temperature, 1% DMSO, pH 7.5
Kindly supply the reported IC50 values for the records listed here.
Answers are plain numbers, in nM.

>>> readout_number("COC(=O)[C@@H]1[C@@H]2CC[C@H]1CN(c1nc(OCC34CCCN3CCC4)nc3c(F)c(-c4cccc5cccc(F)c45)ncc13)C2")
7460

Parameters: items (list). Returns: IC50 for each item.
1. O=C(Oc1ccc(F)c(F)c1)[C@@H]1[C@@H]2CC[C@H]1CN(c1nc(OCC34CCCN3CCC4)nc3c(F)c(-c4cccc5cccc(F)c45)ncc13)C2
2. CCc1c(F)ccc2cc(O)cc(-c3ncc4c(N5CCCCC(C(=O)n6ccc(C)n6)CC5)nc(OC[C@@]56CCCN5C[C@H](F)C6)nc4c3F)c12 (stereo partly drawn)

## Result
1. 61600
2. 2

###

target: KRas-mediated phosphorylation of ERK in MKN1 cells (Homo sapiens); construct: pERK HTRF read-out; assay: Inhibition of KRas-mediated phosphorylation of ERK (HTRF), MKN1 cells; type: cell-based; conditions: MKN1 cells (KRas WT); HTRF pERK; 3 h incubation
Sequence (P01116 1-188 isoform P01116-2): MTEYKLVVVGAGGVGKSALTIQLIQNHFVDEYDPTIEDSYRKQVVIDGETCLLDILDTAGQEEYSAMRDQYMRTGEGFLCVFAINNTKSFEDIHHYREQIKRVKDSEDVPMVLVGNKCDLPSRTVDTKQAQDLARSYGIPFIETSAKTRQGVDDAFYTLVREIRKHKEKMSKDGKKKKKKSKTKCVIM
measure name: log10 of IC50 (log10 of the value in nM)
Hello, just confirming the data are log10 of IC50 with units of nM.

Record excerpt, results attached:
>>> readout_number("CC(=O)N(C)C(=O)C(C)CCN(C)c1nc(OC[C@@]23CCCN2C[C@H](F)C3)nc2c(F)c(-c3ccc(F)c4sc(N)c(C#N)c34)c(Cl)cc12 (stereo partly drawn)")
1.78
>>> readout_number("CCc1c(F)ccc2cc(O)cc(-c3ncc4c(N5CC6CC(C(=O)n7ccc(C)n7)C6C5)nc(OC[C@@]56CCCN5C[C@H](F)C6)nc4c3F)c12 (stereo partly drawn)")
3.40
>>> readout_number("Cc1ccn(C(=O)CCN(C)c2nc(OC[C@@]34CCCN3C[C@H](F)C4)nc3c(F)c(-c4ccc(F)c5sc(N)c(C#N)c45)c(Cl)cc23)n1")
2.40
>>> readout_number("CCc1c(F)ccc2cc(O)cc(-c3ncc4c(NCC5CC(C(=O)N(C)C(C)=O)C5)nc(OC[C@@]56CCCN5C[C@H](F)C6)nc4c3F)c12 (stereo partly drawn)")
2.01
>>> readout_number("CCc1c(F)ccc2cc(O)cc(-c3ncc4c(N5C[C@@H]6[C@H](C5)[C@@H]6C(=O)n5ccc(C)n5)nc(OC[C@@]56CCCN5C[C@H](F)C6)nc4c3F)c12")
3.89

Shift focus to the following entry.
## Task Note down log10 of IC50 recorded for "Cc1ccn(C(=O)C2CCN(c3nc(OC[C@@]45CCCN4C/C(=C\F)C5)nc4c(F)c(-c5ccc(F)c6sc(N)c(C#N)c56)c(Cl)cc34)CC2)n1"
## Result 1.92

###

Please go through the items and note down their IC50.
molecular target: KRas WT (Homo sapiens, UniProt P01116); construct: Biotinylated KRas (corresponding to amino acids 1-169, produced at Accelegan Inc.); biotin (biotinylated); purchased Accelegan Inc; assay: KRas binding assay, TR-FRET displacement of Cy5 labelled tracer; conditions: 60-minute incubation at room temperature, 1% DMSO, pH 7.5
Sequence (P01116 1-169 isoform P01116-2): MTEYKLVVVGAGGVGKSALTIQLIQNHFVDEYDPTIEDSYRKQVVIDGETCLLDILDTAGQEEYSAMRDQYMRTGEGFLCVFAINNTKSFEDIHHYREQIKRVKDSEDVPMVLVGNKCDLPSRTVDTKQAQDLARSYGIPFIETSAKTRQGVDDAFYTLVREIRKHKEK
Give bare numbers, in nM.

Examples from the recorded data:
>>> readout_number("Cc1ccn(C(=O)CCNc2cc(-c3noc4c3CCC[C@@]43CCCc4sc(N)c(C#N)c43)nc(N3CCNC[C@@H]3C)n2)n1")
28
>>> readout_number("CCc1c(F)ccc2cc(O)cc(-c3ncc4c(N5CC[C@H](C(=O)n6ccc(C)n6)[C@H](C)C5)nc(OC[C@@]56CCCN5C[C@H](F)C6)nc4c3F)c12")
8
>>> readout_number("CCc1c(F)ccc2cc(O)cc(-c3ncc4c(N5CC6(C(=O)n7ccc(C)n7)CCCC5C6)nc(OC[C@@]56CCCN5C[C@H](F)C6)nc4c3F)c12 (some centres unmarked)")
1580
>>> readout_number("CCc1c(F)ccc2cc(O)cc(N3CCc4c(nc(OC[C@@]56CCCN5C[C@H](F)C6)nc4N(C)CCC(=O)n4ccc(C)n4)C3)c12")
55
>>> readout_number("CCc1c(F)ccc2cc(O)cc(-c3ncc4c(N5CC(CC(=O)N(C)C(C)=O)C5)nc(OC[C@@]56CCCN5C[C@H](F)C6)nc4c3F)c12")
148
>>> readout_number("CCc1c(F)ccc2cc(O)cc(-c3ncc4c(N5CCCC(C(=O)n6ccc(C)n6)C5)nc(OC[C@@]56CCCN5C[C@H](F)C6)nc4c3F)c12 (some centres unmarked)")
17
>>> readout_number("CN(C(=O)CCCN(C)c1nc(OC[C@@]23CCCN2C[C@H](F)C3)nc2c(F)c(-c3ccc(F)c4sc(N)c(C#N)c34)c(Cl)cc12)C(=O)c1ccn(C)n1")
11
>>> readout_number("CCc1c(F)ccc2cc(O)cc(-c3ncc4c(N5C[C@H]6C[C@H](C(=O)n7ccc(C)n7)C[C@H]6C5)nc(OC[C@@]56CCCN5C[C@H](F)C6)nc4c3F)c12")
258

# batch: return IC50 for each of the 2 molecules below
1. CN(C)c1ccn(C(=O)C2CCCN(c3nc(OC[C@@]45CCCN4C[C@H](F)C5)nc4c(F)c(-c5ccc(F)c6sc(N)c(C#N)c56)c(Cl)cc34)CC2)n1 (some centres unmarked)
2. N#Cc1cccc(OC(=O)[C@@H]2[C@@H]3CC[C@H]2CN(c2nc(OCC45CCCN4CCC5)nc4c(F)c(-c5cccc6cccc(F)c56)ncc24)C3)c1

## Result
26
14100

The values you see were collected from patent US20260356856A1.
